target: recombinant wild-type M. bovis BCG PTA (Mycobacterium bovis); test: biochemical
Sequence (A0A679LAX5 1-690): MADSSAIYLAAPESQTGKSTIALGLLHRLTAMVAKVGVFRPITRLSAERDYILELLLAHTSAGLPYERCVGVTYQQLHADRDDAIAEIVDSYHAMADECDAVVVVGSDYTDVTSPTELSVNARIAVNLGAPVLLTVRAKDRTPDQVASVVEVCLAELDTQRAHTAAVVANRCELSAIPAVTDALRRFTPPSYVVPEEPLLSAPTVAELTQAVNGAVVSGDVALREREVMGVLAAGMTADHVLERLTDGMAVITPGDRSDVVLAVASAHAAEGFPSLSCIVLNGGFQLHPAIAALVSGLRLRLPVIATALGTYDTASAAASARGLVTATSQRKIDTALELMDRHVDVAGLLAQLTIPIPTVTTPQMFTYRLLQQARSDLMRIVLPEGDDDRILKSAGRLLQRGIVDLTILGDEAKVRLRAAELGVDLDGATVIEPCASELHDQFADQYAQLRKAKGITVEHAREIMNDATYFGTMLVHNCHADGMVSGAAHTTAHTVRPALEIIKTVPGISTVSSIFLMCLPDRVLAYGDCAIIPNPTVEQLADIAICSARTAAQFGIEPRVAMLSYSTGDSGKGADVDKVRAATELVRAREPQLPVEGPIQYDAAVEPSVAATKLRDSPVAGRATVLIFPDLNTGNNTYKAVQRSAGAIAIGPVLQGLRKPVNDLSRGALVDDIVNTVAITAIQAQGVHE
endpoint: pIC50
# pIC50 is unitless: minus log10 of the molar concentration; print number only

Problem: Which pIC50 value is on record for CC(=O)N[C@@H]1[C@@H](O)[C@H](O)[C@@H](CO)O[C@H]1SC(=S)N(C)C ?
Solution: 5.55

Problem: Which pIC50 value is on record for CCN1C(=O)C=CC1=O [NEM, N-ethylmaleimide] ?
Solution: 4.84

----------
test system: M. tuberculosis H37Rv; assay: microbe, parasite or virus in culture; format: cell-based, Mycobacterium tuberculosis; conditions: Mycobacterium tuberculosis, H37RV
Parameter MIC: see the listing below.
State just the number; it will be interpreted in µg/mL.

In the examples that follow, each entry is paired with its recorded MIC.
NNC(=O)c1ccncc1; 0.04
CC[C@@H](CO)NCCN[C@@H](CC)CO; 2.5
CO[C@H]1/C=C/O[C@@]2(C)Oc3c(C)c(O)c4c(O)c(c(/C=N/N5CCN(C)CC5)c(O)c4c3C2=O)NC(=O)/C(C)=C\C=C\[C@H](C)[C@H](O)[C@@H](C)[C@@H](O)[C@@H](C)[C@H](OC(C)=O)[C@@H]1C; 0.004
CC(=O)N[C@@H]1[C@@H](O)[C@H](O)[C@@H](CO)O[C@H]1SC(=S)N(C)C; 25

Lab note: next molecule to report on.
Problem: Which MIC value is on record for [H]/N=C(/N)N[C@H]1[C@H](O)[C@@H](O)[C@H](O[C@@H]2O[C@@H](C)[C@](O)(C=O)[C@H]2O[C@@H]2O[C@@H](CO)[C@H](O)[C@@H](O)[C@@H]2NC)[C@@H](N/C(N)=N\[H])[C@@H]1O ?
Solution: 0.4
